# Experimental Target: NPY Y1 (Homo sapiens)
# Sequence (P25929 1-384): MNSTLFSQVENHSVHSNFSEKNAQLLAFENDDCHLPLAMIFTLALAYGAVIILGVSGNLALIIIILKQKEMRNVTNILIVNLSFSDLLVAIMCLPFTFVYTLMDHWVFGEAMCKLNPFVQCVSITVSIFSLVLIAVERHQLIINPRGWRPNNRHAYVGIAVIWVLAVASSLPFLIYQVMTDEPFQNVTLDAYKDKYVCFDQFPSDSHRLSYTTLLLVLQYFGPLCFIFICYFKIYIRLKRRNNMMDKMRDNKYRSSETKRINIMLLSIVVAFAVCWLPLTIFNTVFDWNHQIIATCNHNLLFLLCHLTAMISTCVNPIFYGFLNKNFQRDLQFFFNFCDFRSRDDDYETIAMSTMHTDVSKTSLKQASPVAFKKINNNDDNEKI

Molecule: COc1cccc(OC)c1NC(=O)c1ccc(Cc2cc3c(cc2C)C(C)(C)CCC3(C)C)o1 [Compound 20]
Ki: > 10 µM

* * *

# Method Summary: Pharmacokinetic studies / bioavailability in rats
# Format: in vivo, rat
# Measurement Parameters: rat, plasma, iv; four hours after i.v. injection, 10 mg/kg

Molecule: Cc1cc2c(cc1Cc1ccc(C(=O)NCC3CCCC(CNc4nccc(NCC5CCCO5)n4)C3)o1)C(C)(C)CCC2(C)C (stereo not shown)
concentration at 4 h: 100 to 200 nM

* * *

# Experimental Target: mouse GnRH receptor (Mus musculus, UniProt Q01776)
# Construct: expressed in transfected cells; host or cells: 293 cells
# Sequence (Q01776 whole entry): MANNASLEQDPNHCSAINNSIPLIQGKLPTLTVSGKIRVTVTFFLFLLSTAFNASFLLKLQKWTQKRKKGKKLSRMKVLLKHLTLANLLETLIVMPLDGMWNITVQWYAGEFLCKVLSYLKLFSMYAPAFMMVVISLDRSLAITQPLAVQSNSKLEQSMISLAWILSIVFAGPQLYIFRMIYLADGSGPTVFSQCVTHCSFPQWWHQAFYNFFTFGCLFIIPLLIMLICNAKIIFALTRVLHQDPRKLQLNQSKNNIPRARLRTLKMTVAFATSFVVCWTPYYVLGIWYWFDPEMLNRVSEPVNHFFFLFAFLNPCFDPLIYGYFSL
# Method Summary: Radioligand binding, 125I-GnRH-A, 293 cells expressing mouse GnRH receptors
# Measurement Parameters: 10 uM; read-out: % Inhib. @ 10 uM mGnRH
Tag: Y if measured inhibition at 10 µM is not below 80%, N if it is.

Molecule: Cc1cc2c(cc1Cc1ccc(C(=O)N(CCc3ccccn3)Cc3ccccc3)o1)C(C)(C)CCC2(C)C [drawing 1459]
Class Label: N
//
Molecule: Cc1cc2c(cc1Cc1ccc(C(=O)NC(C)CN(C)C)o1)C(C)(C)CCC2(C)C (centres unmarked) [drawing 1584]
Class Label: Y
//
Molecule: Cc1cc2c(cc1Cc1ccc(C(=O)NCCCCCCO)o1)C(C)(C)CCC2(C)C [drawing 1550]
Class Label: Y
//
Molecule: Cc1cc2c(cc1Cc1ccc(C(=O)N(CCC#N)Cc3cccnc3)o1)C(C)(C)CCC2(C)C [drawing 1473]
Class Label: Y
//
Molecule: Cc1cc2c(cc1Cc1ccc(C(=O)N3CC(C)OC(C)C3)o1)C(C)(C)CCC2(C)C (centres unmarked) [drawing 1426]
Class Label: Y
//
Molecule: Cc1cc2c(cc1Cc1ccc(C(=O)NCc3ccccc3-c3ccccc3)o1)C(C)(C)CCC2(C)C [drawing 1372]
Class Label: N
//
Molecule: COC(=O)C1SCCN1C(=O)c1ccc(Cc2cc3c(cc2C)C(C)(C)CCC3(C)C)o1 (centres unmarked)
Class Label: N
//
Molecule: Cc1cc2c(cc1Cc1ccc(C(=O)N(CCN(C)C)Cc3ccccc3[N+](=O)[O-])o1)C(C)(C)CCC2(C)C [drawing 1491]
Class Label: Y

* * *

# Method Summary: Pharmacokinetic studies / bioavailability in rats
# Type: in vivo, rat
# Measurement Parameters: female, rat, plasma, rat female

Smiles: COc1cc(OC)c(NC(=O)c2ccc(Cc3cc4c(cc3C)OCCC4(C)C)o2)c(OC)c1
half-life, h: 3
//
Smiles: Cc1cc2c(cc1Cc1ccc(C(=O)NCc3cccc(CNc4ccnc(NC[C@@H]5CCCO5)n4)c3)o1)C(C)(C)CCC2(C)C
half-life, h: 3.2
//
Smiles: COc1cc(NS(C)(=O)=O)c(NC(=O)c2ccc(Cc3cc4c(cc3C)C(C)(C)CCC4(C)C)o2)c(OC)c1
half-life, h: 2.4
//
Smiles: COc1cc(OC)c(NC(=O)c2ccc(Cc3cc4c(cc3C)CCCC4(C)C)o2)c(OC)c1
half-life, h: 3.6
//
Smiles: COc1cc(C)c(Cl)c(C)c1Cc1ccc(C(=O)Nc2c(OC)cccc2OC)o1
half-life, h: 1.4
//
Smiles: COc1cccc(OC)c1NC(=O)c1ccc(Cc2c(C)c(C)cc(C)c2C)o1
half-life, h: 1.1
//
Smiles: Cc1cc2c(cc1Cc1ccc(C(=O)NCc3ccc(CNc4ncccn4)cc3)o1)C(C)(C)CCC2(C)C
half-life, h: 7.9

Reference source: patent US7101878B1
